Assay overview: recombinant UMI read abundance after kanamycin selection (control-corrected) (log10(CPM+1)); higher = more efficient recombination; extreme values may be limits of the assay; sequences stand for … in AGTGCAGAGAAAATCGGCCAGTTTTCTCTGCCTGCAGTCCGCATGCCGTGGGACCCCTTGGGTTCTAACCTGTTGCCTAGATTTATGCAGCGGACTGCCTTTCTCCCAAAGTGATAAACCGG…AGGTTGGTTTCACT; site = the 11-nt donor;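 note: IS621 bridge recombinase in Escherichia coli cells against a fixed T5 target plasmid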
Listed next: entries and their corresponding recombinant UMI read abundance (log10).
Readout type: recombinant UMI read abundance (log10)

>>> observed_result("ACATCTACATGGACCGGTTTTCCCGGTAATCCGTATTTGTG (site ACATCTACTCC)")
0.0178
>>> observed_result("GACATACCATGGACCGGTTTTCCCGGTAATCCGTATTTGGT (site GACAAACCTAC)")
0
>>> observed_result("TGGGCTACATGGACCGGTTTTCCCGGTAATCCGTATTTGCA (site TGGGCTACTTG)")
1.79
>>> observed_result("TACTAATCATGGACCGGTTTTCCCGGTAATCCGTATTTGGG (site TACTAATCTCC)")
0.0128
>>> observed_result("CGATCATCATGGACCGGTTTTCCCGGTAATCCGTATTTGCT (site AGGTCATCTAG)")
0
